Listed here: items and their measured n (number of NGS reads of the unique amino acid sequence).
# Target Of Assay: ENL YEATS domain (AviSUMO-ENL YEATS) (Homo sapiens, UniProt Q03111)
# Construct: encoding ENL YEATS (aa 1−148) was cloned in pET28a-; made in house; host or cells: E. coli BL21(DE3pLysS), co-expressed with BirA (pBirAcm)
# Sequence (Q03111 1-148): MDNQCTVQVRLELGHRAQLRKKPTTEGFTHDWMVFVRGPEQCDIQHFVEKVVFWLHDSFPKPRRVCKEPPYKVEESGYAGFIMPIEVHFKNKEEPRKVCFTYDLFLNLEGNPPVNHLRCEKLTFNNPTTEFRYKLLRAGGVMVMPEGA
# Method Notes: Phage panning of BuK-containing 7-mer library against AviSUMO-ENL YEATS with Illumina NGS abundance
# Condition Notes: sheet ENLR3: round 3 of panning against ENL YEATS; TAG = amber codon (BuK); 7-mer library positions V1-V7
# Text: We utilized a previously established amber-obligate 7-mer phage display library to develop a phage display library enriched with BuK-containing 7-mer peptides. […] Furthermore, the comprehensive raw NGS data for the amber-obligate 7-mer phage library can be found in the NCBI’s Sequence Read Archive, under the accession ID PRJNA606283. […]
Answer using only a numeral; do not append any unit.

Here is how some substances turned out for n (number of NGS reads of the unique amino acid sequence).
CHMLCTAGD | 56
LWIIETAGG | 26

// field: n (number of NGS reads of the unique amino acid sequence); key: KCGPRTAGD ; value = 9

// field: n (number of NGS reads of the unique amino acid sequence); key: HSTLFTAGG ; value = 2

// field: n (number of NGS reads of the unique amino acid sequence); key: WWIIETAGR ; value = 6

// field: n (number of NGS reads of the unique amino acid sequence); key: CWVCTAGPH ; value = 74
